Please respond with reported Fluorescence Signal Value for every item in the list.
Molecular target: T1, human PCSK9 (PCSK9 antigen, SEQ ID NO. 53) (human, UniProt A8T644 31-152; Q8NBP7 153-692, Biotin-labelled on amines in the MSD-SET and sorting experiments; positions not given.)
T1 construct: Biotin-labelled in MSD-SET; also called PCSK9-WT; PCSK9 protein
Assay: flow cytometry, PCSK9 left on CHO-LDLR cells (anti-His-FITC) after premix with 10 nM antibody
One number for each entry.

ADI-10087 (antibody, human IgG2, kappa, V domains shown, also called anti-PCSK antibody of the invention) VH: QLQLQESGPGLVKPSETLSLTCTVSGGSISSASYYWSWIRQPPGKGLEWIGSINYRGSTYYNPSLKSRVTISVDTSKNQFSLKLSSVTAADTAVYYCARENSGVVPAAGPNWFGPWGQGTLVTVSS VL: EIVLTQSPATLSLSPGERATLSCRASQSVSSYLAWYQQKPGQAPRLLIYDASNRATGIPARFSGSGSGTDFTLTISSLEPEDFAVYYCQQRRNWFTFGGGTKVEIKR :: 5740
Evolocumab (antibody, V domains shown) VH: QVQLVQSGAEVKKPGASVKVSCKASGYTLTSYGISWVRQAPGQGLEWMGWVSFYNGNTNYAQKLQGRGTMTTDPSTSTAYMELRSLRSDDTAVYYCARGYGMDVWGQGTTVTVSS VL: QSALTQPASVSGSPGQSITISCTGTSSDVGGYNSVSWYQQHPGKAPKLMIYEVSNRPSGVSNRFSGSKSGNTASLTISGLQAEDEADYYCNSYTSTSMVFGGGTKLTVL :: 5780

Next binder, Fluorescence Signal Value to be filled in.
Per the record, ADI-10088 (antibody, human IgG2, kappa, V domains shown, IgG) VH: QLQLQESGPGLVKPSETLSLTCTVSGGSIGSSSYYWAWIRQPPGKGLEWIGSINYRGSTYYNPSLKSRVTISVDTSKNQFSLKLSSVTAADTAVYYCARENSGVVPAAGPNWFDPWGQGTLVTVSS VL: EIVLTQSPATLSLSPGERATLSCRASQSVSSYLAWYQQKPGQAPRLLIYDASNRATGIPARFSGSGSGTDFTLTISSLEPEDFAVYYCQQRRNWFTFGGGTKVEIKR has Fluorescence Signal Value of 5830
